Entry source: PubChem BioAssay (NCI)

- System: 786-0 renal
- EXPERIMENT SUMMARY: NCI-60 one-dose screen, 48 h
- TEST CONTEXT: 10 µM unless noted
This is part of a sample that, as a whole, favours compounds with a hit. Of some 83,000 tested, about 20% had one in any assay. Calls of active or inactive are those of the source. How the source made its calls: active means growth percent below 10; inactive means the rest.
Outcomes: active, inactive

| COMPOUND | TESTED ON | CLASS ASSIGNMENT |
| --- | --- | --- |
| C[C@]12CCc3nc(Nc4cccc(O)c4)sc3C1=CC[C@@H]1[C@@H]2CC[C@]2(C)/C(=N\NC(N)=S)CC[C@@H]12 | 786-0 renal | active |
| COc1cc(COC(=O)CCCCC[P+](c2ccccc2)(c2ccccc2)c2ccccc2)c(OC)c2c1OCO2 | 786-0 renal | inactive |
| COc1cc2nc(Cc3ccc(C)cc3)[nH]c(=O)c2cc1OC | 786-0 renal | inactive |
| O=C(Nc1cccc(Cl)c1)Oc1c(Br)c(Br)c(Br)c(Br)c1Br | 786-0 renal | inactive |
| Fc1ccc(C2CC(c3cccc(Nc4ccncc4)c3)=NN2c2cc(Cl)cc(Cl)c2)cc1 (stereo not given) | 786-0 renal | inactive |
| C#CCn1cc(C=C2C(=O)NC(=S)NC2=O)c2cc(Cl)ccc21 | 786-0 renal | active |
| Clc1ccc(C2CC(c3cccc(Nc4ccncc4)c3)=NN2c2ccccc2)cc1 (stereo not given) | 786-0 renal | active |
| O=C1CCC(NC(=S)Nc2ccccc2)N1 (stereo not given) | 786-0 renal | inactive |
| Cc1ccc(C2CC(c3cccc(Nc4ccncc4)c3)=NN2c2ccccc2)cc1 (stereo not given) | 786-0 renal | inactive |
| CS(=O)(=O)c1ccc(-c2cc3c(oc2=O)-c2ccccc2OC3O)cc1 (stereo not given) | 786-0 renal | inactive |
| CN1CCN(c2c(F)cc(NC3=C(Cl)C(=O)c4ncccc4C3=O)cc2F)CC1 | 786-0 renal | inactive |
| CC1(c2ccccc2)NC(=O)N(CC(=O)Nc2cccc(I)c2)C1=O (stereo not given) | 786-0 renal | inactive |
| O=C(N/N=C/c1ccc(F)cc1)c1ccccc1Nc1cccc(C(F)(F)F)c1 | 786-0 renal | inactive |
| Cc1cc(C(=O)Nc2ncnc3nc[nH]c23)no1 | 786-0 renal | inactive |
| COc1ccc(C2=C(c3ccccc3)c3ccc(OC(C)=O)cc3OC2(C)C)cc1 | 786-0 renal | inactive |
| CN(C)CCCn1c2c(c3ccc(-c4ccn[nH]4)cc3c1=O)C(=O)c1ccccc1-2 | 786-0 renal | active |
| C#CC(=O)Nc1cccc2c1cc(C)n2-c1nc2c(c(NCc3ccccc3)n1)CCCC2 | 786-0 renal | active |
| CCCc1cc2c(cc1Br)OCO2 | 786-0 renal | inactive |
| COc1ccc(/C=C/C(=O)c2ccc(OC)c(OC)c2)cc1O | 786-0 renal | inactive |
| OC1(c2ccc(Cl)c(C(F)(F)F)c2)CCN(CCCC(c2ccc(F)cc2)c2ccc(F)cc2)CC1 | 786-0 renal | active |
| Cc1cc2cc3cc(C)c(N)cc3[n+](C)c2cc1N | 786-0 renal | inactive |
| COc1cc(OC)c(/C=C/C(=O)c2ccc(Nc3ncnc4ccccc34)cc2)c(OC)c1 | 786-0 renal | active |
| CCCC1C(C(=O)OCC)=C(N)Oc2cc(O)ccc21 (stereo not given) | 786-0 renal | inactive |
| O=C(CN1CCOCC1)Nc1ccc2ncnc(Nc3ccc(OCc4cccc(F)c4)c(Cl)c3)c2c1 | 786-0 renal | inactive |
| COc1ccc2c(c1)OC13Oc4cc(OC)ccc4C=C1CCCC3=C2 | 786-0 renal | inactive |
| FC(F)(F)Oc1cccc(-c2cc(NCCCCCCNc3cc(-c4cccc(OC(F)(F)F)c4)nc4ccc(N5CCCC5)cc34)c3cc(N4CCCC4)ccc3n2)c1 | 786-0 renal | active |
| C[C@@H]1CN(Cc2ccc(/C=C/c3n[nH]c4ccc5nc(-c6cn[nH]c6C(F)(F)F)c6c(c5c34)CCCC6)cc2)C[C@H](C)O1 | 786-0 renal | inactive |
| N#Cc1cc(-c2nc3ccccc3s2)c(=O)n(NS(=O)(=O)c2ccc(Cl)cc2)c1N | 786-0 renal | inactive |
| COc1cc(-c2nc3occn3c2-c2ccnc(NCCNS(=O)(=O)c3ccc(Cl)cc3)n2)ccc1F | 786-0 renal | inactive |
| COC(=O)N[C@H]1CCc2cc(OC)c(OC)c(OC)c2-c2ccc(SC)c(=O)cc21 | 786-0 renal | inactive |
| COC(=O)Nc1nc2ccc(C(=O)c3cccc(I)c3)cc2[nH]1 | 786-0 renal | inactive |
| COc1cc2nc(-c3ccc(C#N)cc3)[nH]c(=O)c2cc1OC | 786-0 renal | inactive |
| Fc1ccc(C2CC(c3cccc(Nc4ccncc4)c3)=NN2c2ccc(Cl)cc2)cc1 (stereo not given) | 786-0 renal | inactive |
| O=C(Nc1nc2ccc(C(=O)N3CCN(c4ccc(Cl)c(Cl)c4)CC3)cc2s1)c1ccc(NCCc2ccccc2)c([N+](=O)[O-])c1 | 786-0 renal | inactive |
| COc1cc(/C=N/NC(=O)c2ccccc2Nc2cccc(C(F)(F)F)c2)ccc1O | 786-0 renal | inactive |
| Fc1ccc(-n2cc(COc3ncnc4sc5c(c34)CCCC5)nn2)cc1Cl | 786-0 renal | inactive |
| COc1ccc(C(O)c2cc3c(N)c(C(=O)Nc4ccc(Br)cc4)sc3nc2C)cc1 (stereo not given) | 786-0 renal | inactive |
| COc1cc(NCCCN(CC(C)C)CC(C)C)c2ncccc2c1 | 786-0 renal | inactive |
| Cn1c(COC(=O)NCCn2ccnc2)nc2c(N3CCOCC3)nc(-c3ccccc3)nc21 | 786-0 renal | active |
| Cc1cc(C)c(C=O)c(C)c1 | 786-0 renal | inactive |

----------
- Test system: HCT-15 colon
- EXPERIMENT SUMMARY: NCI-60 one-dose screen, 48 h (100 = growth as untreated, 0 = no growth, -100 = all killed)
- TEST CONTEXT: 10 µM unless noted
About 83,000 compounds went through this panel and 20% of them were active in at least one assay; those are over-represented in the sample as a whole.

| COMPOUND | growth / % |
| --- | --- |
| CCCCCCN(C)Cc1ccc(OCCOc2ccc(CN(C)CCCCCC)cc2)cc1 | 5.57 |
| CCCCc1ccc(Nc2nnc(SCC(=O)NC(=O)NCC)s2)cc1 | 99.9 |
| CNC(=O)NCC1OC(n2cnc3c(NC(=O)Nc4ccccc4)ncnc32)C(O[Si](C)(C)C(C)(C)C)C1O[Si](C)(C)C(C)(C)C (stereo not given) | 21.3 |
| CC(C)(C)OC(=O)N1C/C(=C\c2ccoc2)C(=O)/C(=C/c2ccoc2)C1 | 99.6 |
| COc1cc(CNC(=O)CCCCC[P+](c2ccccc2)(c2ccccc2)c2ccccc2)c(OC)c2c1OCO2 | 99.8 |
| COc1ccccc1/C=C1\COc2ccc(-c3ccccc3)cc2C1=O | 22.7 |
| C=C(C)[C@@H]1CC[C@]2(C(=O)NCCCN(CCC#N)CCC#N)CC[C@]3(C)[C@H](CC[C@@H]4[C@@]5(C)CCC(=O)C(C)(C)[C@@H]5CC[C@]43C)[C@@H]12 | 101 |
| CC(N)C(=O)NNc1n[nH]c(=S)n1N (stereo not given) | 93.9 |
| O=S(=O)(c1ccc(N/N=C\c2ccccc2)cc1)c1ccc(N/N=C/c2ccccc2)cc1 | 88.7 |
| CSc1nnc2c(=O)n(C)c(=O)n(C)c2n1 | 100 |

----------
- System: MALME-3M melanoma
- EXPERIMENT SUMMARY: NCI-60 one-dose screen, 48 h
- TEST CONTEXT: 10 µM unless noted
Compounds without any hit were thinned out: in the full panel of roughly 83,000, 20% have a hit. Activity calls are given as the source filed them. Rule for the calls: active = growth percent below 10; inactive = the rest.
Outcomes: TRUE for active, FALSE for inactive

| COMPOUND | TESTED ON | CLASS ASSIGNMENT |
| --- | --- | --- |
| Fc1ccc(C2CC(c3cccc(Nc4ccncc4)c3)=NN2c2cc(Cl)cc(Cl)c2)cc1 (stereo not drawn) | MALME-3M melanoma | FALSE |
| CCCC1C(C(=O)OCC)=C(N)Oc2cc(O)ccc21 (stereo not drawn) | MALME-3M melanoma | FALSE |
| COc1cc(/C=C/C(=O)c2ccc(Nc3ncnc4ccccc34)cc2)cc(OC)c1 | MALME-3M melanoma | FALSE |
| Cc1c(C(=O)NO)sc2ncnc(Nc3ccc(NC(=S)Nc4ccccc4)cc3)c12 | MALME-3M melanoma | FALSE |
| CS(=O)(=O)OCCN(CCOS(C)(=O)=O)c1ccc(/C=N/Nc2ccc([N+](=O)[O-])cc2[N+](=O)[O-])cc1 | MALME-3M melanoma | FALSE |
| CN1C2CCC1CN(c1cnc(C(=O)Nc3cc(F)cc4cccnc34)cn1)C2 | MALME-3M melanoma | FALSE |
| O=S(=O)(c1ccccc1)N1CCCc2ccccc21 | MALME-3M melanoma | FALSE |
| c1ccc(C2CC(c3cccc(Nc4ccncc4)c3)=NN2c2ccccc2)cc1 (stereo not drawn) | MALME-3M melanoma | TRUE |
| COc1cc2nc(-c3ccc(C(F)(F)F)cc3)cc(OCCCN3CCC(O)CC3)c2cc1OC | MALME-3M melanoma | FALSE |
| COc1ccc(C(O)c2cc3c(N)c(C(=O)Nc4cccc(Br)c4C)sc3nc2C)cc1 (stereo not drawn) | MALME-3M melanoma | FALSE |
| COc1ccc(C(O)c2cc3c(N)c(C(=O)Nc4ccccc4)sc3nc2C)cc1 (stereo not drawn) | MALME-3M melanoma | FALSE |
| COc1ccc(CNC(=O)COc2ccc(/C=N/Nc3nc4ccccc4s3)cc2)cc1 | MALME-3M melanoma | FALSE |
| Fc1ccc(C2CC(c3cccc(Nc4ccncc4)c3)=NN2c2ccccc2)cc1 (stereo not drawn) | MALME-3M melanoma | TRUE |
| CCN(CCNc1cc(OC)cc2cccnc12)CCc1ccccc1 | MALME-3M melanoma | FALSE |
| COc1cc(NCC(O)CN(CC(C)C)C2CCCC2)c2ncccc2c1 (stereo not drawn) | MALME-3M melanoma | FALSE |
| FC(F)(F)c1cccc(Nc2ccccc2)c1 | MALME-3M melanoma | FALSE |
| NC(=O)c1cccc(-c2cc(C(N)=O)ccc2Cl)c1 | MALME-3M melanoma | FALSE |
| Cc1[nH]c(C(=O)Nc2ccccc2OCc2cccc(C(=O)NCCN)c2)c(Cl)c1Cl | MALME-3M melanoma | FALSE |
| c1ccc(Cn2nc3c(c2-c2ccccc2)-c2oncc2CC3)cc1 | MALME-3M melanoma | FALSE |
| CCN(CC)CCOC(COc1cc(C)cc(C)c1)COc1cc(C)cc(C)c1 | MALME-3M melanoma | FALSE |
| CN1C(=O)N(C)C2NC(N/N=C/c3ccccc3)=NC21 (stereo not drawn) | MALME-3M melanoma | FALSE |
| O=C(O)CCCCCCCCCCCCCCC(=O)O | MALME-3M melanoma | FALSE |
| COc1ccc(/C=C/C(=O)c2ccc(OC)c(OC)c2)cc1O | MALME-3M melanoma | FALSE |
| NS(=O)(=O)c1cccc(NC(=O)C(=O)C2C(=O)Nc3ccccc32)c1 (stereo not drawn) | MALME-3M melanoma | FALSE |
| Nc1c(C(=O)Nc2ccc(Cl)cc2)cc(-c2nc3ccccc3s2)c(=O)n1NS(=O)(=O)c1ccc(Cl)cc1 | MALME-3M melanoma | FALSE |
| O=C1CCC(NC(=S)Nc2ccccc2)N1 (stereo not drawn) | MALME-3M melanoma | FALSE |
| Cc1cccc(Oc2ccc(Nc3ncnc4ccc(NC(=O)CNCCO)cc34)cc2Cl)c1 | MALME-3M melanoma | FALSE |
| COc1ccc(-c2nn(Cc3ccccc3)c3c2-c2oncc2CC3)cc1OC | MALME-3M melanoma | FALSE |
| O=C1Nc2c(ccc(Cl)c2Cl)/C1=C/c1ccc(O)cc1 | MALME-3M melanoma | FALSE |
| COc1ccc2c(c1)OC13Oc4cc(OC)ccc4C=C1CCCC3=C2 | MALME-3M melanoma | FALSE |
| N#C/C(=C\c1ccc(Br)cc1)n1nnc2cccc(F)c21 | MALME-3M melanoma | FALSE |
| O=C(Cc1ccc(/C=C/C(=O)c2ncc[nH]2)cc1)Nc1ccc(C(F)(F)F)cc1 | MALME-3M melanoma | FALSE |
| O=C(O)CNC(=O)CN1C(=O)c2ccccc2C1=O | MALME-3M melanoma | FALSE |
| COc1ccc(Nc2nc(N)nc3c2CCc2occc2-3)cc1 | MALME-3M melanoma | FALSE |
| CN(C)CCCn1c2c(c3ccc(-c4ccn[nH]4)cc3c1=O)C(=O)c1ccccc1-2 | MALME-3M melanoma | FALSE |
| Cc1cn(-c2cc(C(=O)Nc3cccc(C#Cc4cccc5[nH]nc(N)c45)c3)cc(C(F)(F)F)c2)cn1 | MALME-3M melanoma | TRUE |
| COc1ccc(/C=C(/c2ccccc2)[N+](=O)[O-])cc1 | MALME-3M melanoma | TRUE |
| COc1ccc(/C(C)=N/NC(=O)CSc2nc3ccccc3c(=O)n2Cc2ccc(S(N)(=O)=O)cc2)c(OC)c1 | MALME-3M melanoma | FALSE |
| COc1ccc(/C=C/c2n[nH]c3ccc(N4CCOC4=O)cc23)cc1 | MALME-3M melanoma | FALSE |
| CCCCCCCCCCN=C(N)N=C(N)N | MALME-3M melanoma | FALSE |
| Cc1ccccc1-c1cc(Cc2ccc(F)cc2)c(=O)[nH]n1 | MALME-3M melanoma | FALSE |
| CCCCc1ccc(Nc2nnc(SCC(=O)NC(=O)NCC)s2)cc1 | MALME-3M melanoma | FALSE |
| CCCC/C(=N\N=C(N)N)c1ccc(F)cc1 | MALME-3M melanoma | FALSE |
